Biological target: CepR (Burkholderia cenocepacia, UniProt B4EMD0)
Sequence (B4EMD0 1-239): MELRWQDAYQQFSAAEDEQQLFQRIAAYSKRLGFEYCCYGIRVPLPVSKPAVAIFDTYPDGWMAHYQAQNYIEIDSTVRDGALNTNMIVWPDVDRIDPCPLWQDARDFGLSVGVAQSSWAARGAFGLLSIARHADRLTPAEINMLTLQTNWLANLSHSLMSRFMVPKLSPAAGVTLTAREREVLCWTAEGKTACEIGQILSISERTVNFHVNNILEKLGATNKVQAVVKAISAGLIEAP
Assay: CepR agonism in E. coli β-galactosidase reporter (Ec-reporter) JLD271 [pJN105-cepR + pSC11-cepI]
Assay type: cell-based, B. cenocepacia
Conditions: Table S2, Ec-reporter; screening conc. 100 μM
ASSAY READOUT: Act% (%)
Number only, in %; omit the unit.

Below: 3 molecules and their reported Act%.
O=C(N[C@H]1CCOC1=O)c1ccc(Cl)cc1 [Compound Q4]: 49
O=C(CCCc1ccccc1)N[C@@H]1CCOC1=O [Compound B3]: -0.4
CCCCCC(=O)CC(=O)NC1CCSC1=O (stereo not drawn) [3’O-C8-TL]: 61

q: Output Act% of O=C(CCC1CCCCC1)N[C@H]1CCOC1=O [Compound B11]
a: 87

q: Give me measured Act%, please, for this molecule: O=C(N[C@H]1CCOC1=O)c1ccc(-c2ccccc2)cc1 [Compound Q12]
a: 111

q: Return Act% (reported value) for this molecule: COc1cc(C(C)=O)ccc1OCC(=O)N[C@H]1CCOC1=O [Compound D16]
a: 3.5

q: Specify Act% for O=C(Cc1cccc2ccccc12)N[C@H]1CCOC1=O [Compound E13] and stop.
a: 2.5

q: For the molecule O=C(Cc1ccccc1Br)N[C@H]1CCOC1=O [Compound C9] , give its measured Act% value.
a: 0.3

q: Find the measured Act% of CCCCCCCCCCCCn1nnc(CC(=O)O)n1 [PD-12, reference compound] and report it.
a: -7.6

###

Target: CepR (Burkholderia multivorans)
Sequence (Q93PF7 1-239): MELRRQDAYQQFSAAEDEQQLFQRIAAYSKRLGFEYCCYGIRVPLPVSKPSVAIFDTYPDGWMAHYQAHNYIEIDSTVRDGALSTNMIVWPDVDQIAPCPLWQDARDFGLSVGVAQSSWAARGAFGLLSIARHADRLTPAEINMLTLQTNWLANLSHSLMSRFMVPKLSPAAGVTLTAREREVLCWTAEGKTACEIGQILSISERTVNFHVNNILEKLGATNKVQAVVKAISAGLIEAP
Assay: CepR agonism in B. multivorans cepI::lacZ reporter (Bm-reporter)
Format: cell-based
Details: Table S4, Bm-reporter; screening conc. 100 μM
Source text: We next sought to assess if the CepR modulators identified in the Ec-reporter maintained their activities in a member of the Bcc. For these studies, we generated a B. multivorans cepI::lacZ reporter organism (Bm-reporter) using standard allelic exchange methods (see Methods). […] Similar to the Ec-reporter, CepR binding to the cepI promoter then induces β-galactosidase production, allowing for the quantitation of CepR activity. […]
ASSAY READOUT: Act% (%)
API: value field is a number in %; no unit string.

CCCCCC(=O)CC(=O)N[C@H]1CCOC1=O [3’O-C8-AHL, reference compound]: 72
O=C(CCc1cccc(C(F)(F)F)c1)N[C@H]1CCOC1=O: 103
O=C(CCCOc1ccc(Cl)cc1)NC1CCOC1=O (stereo not shown) [CL, reference compound]: 80

// next item, Act% requested
q: Give me measured Act%, please, for this molecule: O=C(CCc1cccc(I)c1)N[C@H]1CCOC1=O
a: 94

###

molecular target: CepR (Burkholderia cenocepacia); test: CepR agonism in E. coli β-galactosidase reporter (Ec-reporter) JLD271 [pJN105-cepR + pSC11-cepI]; assay type: cell-based, B. cenocepacia; conditions: Table S2, Ec-reporter; screening conc. 100 μM
The entries below are paired with their reported Act%.

Answered examples (4):
O=C(COc1ccc(I)cc1)N[C@H]1CCOC1=O: 92%
O=C(Cc1ccc(-c2ccccc2)cc1)NC1CCSC1=O (centres unmarked): 35%
O=C(Cc1cccc([N+](=O)[O-])c1)NC1CCCC1: 1.0%
O=C(Cc1ccc(Br)cc1)NC1CCSC1=O (centres unmarked): 0.5%

q: Note down Act% recorded for O=C(N[C@H]1CCOC1=O)c1ccc(Br)cc1
a: 56%

###

target: CepR (Burkholderia multivorans); experiment: CepR antagonism in B. multivorans cepI::lacZ reporter (Bm-reporter), competition against C8-AHL; assay type: cell-based; conditions: Table S5, Bm-reporter; screening conc. 100 μM
Listing of entries alongside the reported Inh% (100-Act%).
Report only the number, with the unit % understood.

Some entries whose results are on file:
O=C(Cc1ccccc1Cl)N[C@H]1CCOC1=O [Compound C7]: 95
O=C(Cc1ccc(Cl)c(Cl)c1)N[C@H]1CCOC1=O [Compound E11]: 94
O=C(Nc1ccccc1NC(=O)c1cccc(Cl)c1)c1cccc(Cl)c1 [TP-5, reference compound]: 15
O=C(Cc1cccc(Cl)c1)N[C@H]1CCOC1=O [Compound C6]: 98
CCCCCCCCCC(=O)CC(=O)Nc1ccccc1O [Control 14, reference compound]: 25

q: Supply Inh% (100-Act%) value. Item: N#Cc1ccc(CC(=O)N[C@H]2CCOC2=O)cc1 [Compound E4]
a: 97

q: Give the measured Inh% (100-Act%) for O=C(Cc1cccc(I)c1)N[C@H]1CCOC1=O [Compound C11]
a: 80

q: Tell us which Inh% (100-Act%) value is on record for O=C(Cc1ccc(Br)cc1)N[C@H]1CCOC1=O [Control 7, reference compound]
a: 85

q: Kindly indicate its recorded Inh% (100-Act%). Item: O=C(Cc1ccccc1I)N[C@H]1CCOC1=O [Compound C12]
a: 104

q: Specify measured Inh% (100-Act%) for CCCCCCS(=O)(=O)N[C@H]1CCOC1=O [Compound A11] .
a: 84

q: State its Inh% (100-Act%) for this compound: O=C(Cc1ccccc1Br)N[C@H]1CCOC1=O [Compound C9]
a: 99

q: State its Inh% (100-Act%): O=C(Cc1ccccc1[N+](=O)[O-])N[C@H]1CCOC1=O [Compound C15]
a: 95

###

Each record here notes measured Act%.
target: CepR (Burkholderia cenocepacia); assay: CepR agonism in E. coli β-galactosidase reporter (Ec-reporter) JLD271 [pJN105-cepR + pSC11-cepI]; type: cell-based, B. cenocepacia; details: Table S2, Ec-reporter; screening conc. 100 μM

Worked cases, answers included:
CSc1cccc(CC(=O)NC2CCOC2=O)c1 (centres unmarked) [Compound E7]: 5.9%
O=C(Cc1ccccc1Cl)N[C@H]1CCOC1=O [Compound C7]: 0.3%
CCCCCCCCCCCCCC(=O)N[C@H]1CCOC1=O [Compound C14-AHL, tetradecanoyl L-homoserine lactone, reference compound]: 49%

q: Return reported Act%. Input molecule: CCCCCC(=O)CC(=O)N[C@@H]1CCOC1=O [D-3’O-C8-AHL]
a: 85%

q: Write down Act% measured for item O=C(N[C@H]1CCOC1=O)c1cccc(Br)c1 [Compound Q2]
a: 4.9%

###

Reported Act% by item:
Molecular target: CepR (Burkholderia cenocepacia)
Sequence (B4EMD0 1-239): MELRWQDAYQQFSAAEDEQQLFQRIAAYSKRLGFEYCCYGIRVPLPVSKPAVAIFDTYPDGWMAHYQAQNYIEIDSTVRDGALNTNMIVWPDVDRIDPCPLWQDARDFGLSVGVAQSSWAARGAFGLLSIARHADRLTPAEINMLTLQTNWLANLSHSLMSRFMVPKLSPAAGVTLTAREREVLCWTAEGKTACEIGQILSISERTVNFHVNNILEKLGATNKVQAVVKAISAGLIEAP
Test: CepR agonism in E. coli β-galactosidase reporter (Ec-reporter) JLD271 [pJN105-cepR + pSC11-cepI]
Format: cell-based, B. cenocepacia
Conditions: Table S2, Ec-reporter; screening conc. 100 μM
State the answer as a number, implicitly in %.

CCCOc1ccc(C(=O)N[C@H]2CCOC2=O)cc1 [Compound R2]: 98
O=C(CCc1cccc(I)c1)N[C@H]1CCOC1=O [Compound E33]: 92

q: Identify measured Act% obtained with CepR (Burkholderia cenocepacia) for CC(C)(C)OC(=O)NCCCCC(=O)N[C@H]1CCOC1=O [Compound D1] .
a: 16

q: Fetch value of Act% on CepR (Burkholderia cenocepacia) for O=C(Cc1ccc2ccccc2c1)N[C@H]1CCOC1=O [Compound E12] .
a: 11

q: Report Act% from CepR (Burkholderia cenocepacia) testing of O=C(Cc1ccccc1I)N[C@H]1CCOC1=O [Compound C12]
a: -0.4

q: Report value: Act%, system: CepR (Burkholderia cenocepacia), compound: O=C(Cc1cccc(F)c1)N[C@H]1CCOC1=O [Compound C3]
a: 0.2

q: Determine reported Act% for O=C(Cc1ccccc1)N[C@H]1CCOC1=O [Compound C1] ; test system: CepR (Burkholderia cenocepacia).
a: 0.0

q: Fill in: Act% on CepR (Burkholderia cenocepacia), entry O=C(Cc1ccccc1[N+](=O)[O-])N[C@H]1CCOC1=O [Compound C15]
a: 1.4

q: // fetch Act% for O=C(CCc1ccc(Cl)cc1)N[C@H]1CCOC1=O [Compound E30] ; system: CepR (Burkholderia cenocepacia)
a: 85

q: GET Act% | system: CepR (Burkholderia cenocepacia) | item: O=C(CC(O)Cc1cccc(I)c1)N[C@H]1CCOC1=O (stereo partly shown) [Compound H15]
a: 2.6
